experiment: optical density change of DRC41 E. coli – strain DRC41, OD650, 24 h, E. coli filamentation project, primary screen (AID 1093);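 further: MC1000 strain lacking acrAB efflux and sulA so SOS filamentation is blocked; test concentration not given here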; conditions: E. coli DRC41 growth, higher = more signal, called active from +8 up or from −8 down
Outcome label depends on z-score relative to -0.3: at/above gives 1.0, below gives 0.0.

# example entries with known answers
| compound | qualitative.label |
| --- | --- |
| CN1C(=O)C2C=CC(C(O)C=Cc3ccc([N+](=O)[O-])cc3)N(Nc3ccccc3)C2C1=O (centres undefined) | 0.0 |
| COC(=O)[C@@]1(Cc2ccccc2)[C@H]2c3cc(C(=O)N4CCCC4)n(Cc4ccc(O)c(OC)c4)c3C[C@H]2CN1C(=O)c1ccccc1 | 0.0 |
| O=C1OCCC/C=C\[C@H]2OC34C=CCN(c5ccc6ccccc6c5)C(=O)[C@H]3N(CCCCCO)C(=O)[C@@H]4C12 (some centres undefined) | 0.0 |
| COc1ccc([Si](C)(C)[C@@H]2[C@@H](CCn3cc(CCO)nn3)O[C@]3(C(=O)N(Cc4cccc(N5C(=O)c6cccc7cccc5c67)c4)c4ccccc43)[C@H]2C)cc1 | 1.0 |
| C=C(CCCC)/C(=C/C[C@H](OC(C)=O)c1ccccc1OCCO)c1cnc2ccccc2c1 | 1.0 |

Q) Has O=C1O[C@@H](c2ccccc2)[C@@H](c2ccccc2)N2[C@@H](c3ccccc3OCCO)[C@]3(C(=O)Nc4ccc(C#CC5(O)CCCCCC5)cc43)[C@@H](C(=O)N3CCN(c4ncccn4)CC3)[C@H]12 a recorded z-score greater than or equal to -0.3?
A) 1.0

Q) Has CCN(CC)c1ccc(N2CC=CC34O[C@@H]5C=CCOC(=O)[C@@H]5[C@H]3C(=O)N(CCCCCCO)[C@@H]4C2=O)cc1 (some centres undefined) a recorded z-score greater than or equal to -0.3?
A) 1.0

Q) Has CCOC(=O)C1=CC[C@@H](c2ccccc2)N(S(=O)(=O)c2ccc(C)cc2)[C@H]1c1ccc(CC)cc1 a recorded z-score greater than or equal to -0.3?
A) 0.0

Q) Has CC(C)=CCCC(C)=CC(O)C1C=CC2C(=O)N(c3ccccc3)C(=O)C2N1Nc1ccc(C(C)C)cc1 (centres undefined) a recorded z-score greater than or equal to -0.3?
A) 0.0

Q) Has COC(=O)[C@]1(Cc2ccccc2)N=C(c2ccc(OCCCO)cc2)O[C@@H]1c1ccccc1N=[N+]=[N-] a recorded z-score greater than or equal to -0.3?
A) 0.0

Q) Has CO[C@H]1O[C@H](CO)[C@@H](OC(=O)Nc2ccccc2-c2ccccc2)[C@H](OC(=O)Nc2ccccc2-c2ccccc2)[C@@H]1OC(=O)Nc1ccccc1-c1ccccc1 a recorded z-score greater than or equal to -0.3?
A) 1.0

Q) Has CN(C)CCCCCCNC(=O)[C@@H]1C[C@@H]2C(=O)N3CCC[C@H]3C(=O)N2[C@@H]1c1ccc(O)cc1 a recorded z-score greater than or equal to -0.3?
A) 1.0

Q) Has O=C1C[C@@](C(=O)NCc2ccccc2)(c2ccc([N+](=O)[O-])cc2)[C@@H](c2ccc(CO)cc2)N1CC12CC3CC(CC(C3)C1)C2 a recorded z-score greater than or equal to -0.3?
A) 1.0

Q) Has COc1cc2c(cc1O)C(c1cccs1)N(Cc1ccc([N+](=O)[O-])o1)CC2 (centres undefined) a recorded z-score greater than or equal to -0.3?
A) 0.0

----------
test system: Noggin (protein binding on small-molecule microarray); assay: small molecules binding Noggin protein – biochemical, 635/667 nm fluorescence, primary screen (AID 1095); details: 635 nm fluorescence, higher = more signal;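 further: score merges 667 nm feature fluorescence with signal to noise over triplicate slides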
Listing of recorded composite z-score by entry.
A bare number is all that is needed in reply.

| compound | assay.result |
| --- | --- |
| [N-]=[N+]=Nc1ccccc1C[C@]1(C(=O)NCc2ccccc2)N=C(c2ccc(OCCCO)cc2)O[C@H]1c1ccccc1N=[N+]=[N-] | 0.358 |
| CCOc1ccc(N2C(=O)CSC2c2cccc([N+](=O)[O-])c2)cc1 (stereo not given) | 0.154 |

Q) Specify reported composite z-score for the compound shown: COc1ccc(CCNC(=O)[C@@]2(C)c3ccccc3C(=O)N(c3ccc(C)cn3)[C@H]2c2ccc(CO)cc2)cc1
A) -0.704

Q) Specify reported composite z-score for the compound shown: OCC1C=C(/C=C/c2ccccc2)CN1Cc1ccccc1Br (stereo not given)
A) 0.876

Q) Specify reported composite z-score for the compound shown: O=C1NC(=O)C2C1C=CC(C(O)c1ccc(-c3ccccc3)s1)N2Nc1ccc(Cl)cc1Cl (stereo not given)
A) 0.23

Q) Specify reported composite z-score for the compound shown: Cc1ccc([C@H]2C(C(=O)O)=CCN2S(=O)(=O)c2ccc(C)cc2)cc1
A) 0.11

Q) Specify reported composite z-score for the compound shown: COC(=O)c1c(CC[C@@H](CO)NC(=O)N[C@@H](Cc2ccccc2)Cn2cc(-c3ccccn3)nn2)oc(C(=O)N2CCOCC2)c1C(=O)OC
A) 0.227

Q) Specify reported composite z-score for the compound shown: COc1cc2c(cc1OC)CN(C(=O)[C@H]1[C@@H]3C(=O)O[C@@H](c4ccccc4)[C@@H](c4ccccc4)N3[C@@H](c3ccccc3OCCO)[C@]13C(=O)Nc1ccc(C#CCCO)cc13)CC2
A) 1.71

Q) Specify reported composite z-score for the compound shown: CCC(CC)C(O)C1C=CC2C(=O)N(c3ccccc3)C(=O)C2N1Nc1ccccc1 (stereo not given)
A) 0.403

Q) Specify reported composite z-score for the compound shown: COCCOC(=O)N1C(=O)[C@@]2(c3cc(C#CCCO)ccc31)[C@H](c1ccc(O)cc1)N1[C@H](c3ccccc3)[C@H](c3ccccc3)OC(=O)[C@H]1[C@@H]2C(=O)N1CCN(c2ncccn2)CC1
A) 1.58

Q) Specify reported composite z-score for the compound shown: CC1CC/C=C\[C@H]2OC34C=CCN(Cc5ccccc5)C(=O)[C@H]3N(C(C)CO)C(=O)[C@@H]4C2C(=O)O1 (stereo not given in full)
A) 0.392

Q) Specify reported composite z-score for the compound shown: CCOC(=O)C[C@H]1[C@H](OC(=O)c2ccc(-c3ccccc3)cc2)[C@@H](NC(=O)c2ccccc2)c2cc(OCCCO)ccc2N1C(=O)c1ccc2ccccc2n1
A) 0.0388

Q) Specify reported composite z-score for the compound shown: CC(C)NC(=O)[C@@]1(Cc2ccccc2I)c2ccccc2C(=O)N(Cc2ccccc2Cl)[C@H]1c1ccc(CO)cc1
A) 0.607

Q) Specify reported composite z-score for the compound shown: Cc1ccc(S[C@]2(C(=O)O)CC(=O)N(C(C)C)[C@@H]2c2ccc(CO)cc2)cc1
A) 0.306

Q) Specify reported composite z-score for the compound shown: Cc1ccc(S[C@]2(C(=O)NCC(C)C)CC(=O)N(Cc3cc(C(F)(F)F)cc(C(F)(F)F)c3)[C@@H]2c2ccc(CO)cc2)cc1
A) -0.671

----------
assay: change in splice reporter luminescence, either direction, cell-based, HEK293, spliceosome inhibition project, primary screen (AID 1101); conditions: HEK293 splicing luciferase reporter, 24 h, higher = more signal, called active from +8 up or from −8 down;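 further: HEK293 cells carrying a splicing-competent luciferase reporter gene; test concentration not given here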
Outcome label depends on z-score relative to -0.4: at/above gives Criterion met, below gives Criterion not met.

| compound | qualitative.label |
| --- | --- |
| CN(C)C(=O)[C@]1(Cc2ccccc2)N=C(c2ccc(OCCCO)cc2)O[C@@H]1c1ccccc1N=[N+]=[N-] | Criterion not met |
| CCCC(=O)N(CCc1c[nH]c2ccccc12)[C@@H]1CC(C(=O)NCCO)=C[C@H](Oc2c(I)cc(CO)cc2OC)[C@H]1O | Criterion met |
| CC(C)=CCCC(C)=CC(O)C1C=CC2C(=O)N(c3ccccc3)C(=O)C2N1Nc1ccc(C(C)C)cc1 (configuration not stated) | Criterion met |

Q) Has C#CCOc1ccc(C[C@@H](C(=O)OC)N(CC#C)[C@@H](/C=C/C2CC2)[C@H](O)Cc2ccccc2)cc1 a recorded z-score greater than or equal to -0.4?
A) Criterion met

Q) Has O=C1O[C@@H](c2ccccc2)[C@@H](c2ccccc2)N2[C@@H](c3ccccc3OCCO)[C@]3(C(=O)Nc4ccccc43)[C@@H](C(=O)O)[C@H]12 a recorded z-score greater than or equal to -0.4?
A) Criterion not met

Q) Has O=C(O)[C@H](Cc1ccccc1)n1cc(-c2ccccc2)nn1 a recorded z-score greater than or equal to -0.4?
A) Criterion not met

Q) Has C#CCN1[C@H](/C=C/C2CC2)[C@H](Cc2ccccc2)OC(=O)[C@@H]1Cc1ccccc1 a recorded z-score greater than or equal to -0.4?
A) Criterion met

Q) Has [N-]=[N+]=Nc1ccccc1C[C@@]1(C(=O)N2CCCCC2)N=C(c2ccc(OCCCO)cc2)O[C@@H]1c1ccccc1 a recorded z-score greater than or equal to -0.4?
A) Criterion not met

----------
assay: growth modulation of vineyard yeast isolate – strain RM11-1a, OD600, basal, 24 h, primary screen (AID 1177);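 further: cultures grown under basal conditions with no added stressor; test concentration not given here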; conditions: S. cerevisiae RM11-1a growth, OD600, 24 h; higher = more signal, called active from +8 up or from −8 down
property.measured: z-score
A bare number is all that is needed in reply.

Worked cases, z-score given:
| compound | property.measured | assay.result |
| --- | --- | --- |
| C#CCN(C/C=C/c1ccccc1)[C@H](CO)c1ccccc1 | z-score | -1.31 |
| COC(=O)[C@]1(CCC(=O)OC(C)(C)C)N=C(c2ccc(OCCCO)cc2)O[C@@H]1c1ccccc1 | z-score | 0.504 |

Q) Specify reported z-score for the compound shown: O=C1C2C=CC(C(O)c3c(F)cccc3Cl)N(Nc3ccccc3F)C2C(=O)N1c1ccccc1 (stereo not given)
A) 0.824

Q) Specify reported z-score for the compound shown: C=C(CCCC)/C(=C/C[C@H](OC(C)=O)c1ccccc1OCCO)c1cnc2ccccc2c1
A) 1.15

Q) Specify reported z-score for the compound shown: CCCC[C@@H]1C[C@H]1[C@@H](NC(=O)c1cccnc1)c1ccc(Cl)cc1
A) -2.78

Q) Specify reported z-score for the compound shown: CC(C)CN1C(=O)[C@@]2(c3ccc([N+](=O)[O-])cc3)CC(=O)N(C3CCCCC3)[C@@H]2c2ccc(CO)cc21
A) 0.488

Q) Specify reported z-score for the compound shown: CC(C)NC(=O)[C@@H]1c2ccccc2C(=O)N(C(C)C)[C@H]1c1ccc(CO)cc1
A) 0.0971

Q) Specify reported z-score for the compound shown: O=C(O)[C@@]1(CCS(=O)(=O)c2ccccc2)N=C(c2ccc(OCCCO)cc2)O[C@H]1c1ccccc1
A) -0.357

Q) Specify reported z-score for the compound shown: COC(=O)c1c(CC[C@@H](CO)NC(=O)NCCc2c[nH]c3ccccc23)oc(C(=O)Cc2ccccc2)c1C(=O)OC
A) -0.731

Q) Specify reported z-score for the compound shown: CCCCN1CC=CC23O[C@@H]4/C=C\CCCOC(=O)C4[C@H]2C(=O)N(CCCCCO)[C@@H]3C1=O (stereo not given in full)
A) -1.06

All values here come from PubChem BioAssay.
